System: K562
Protocol Description: NCI tumour cell line growth inhibition, 48 h
Calls of active or inactive are those of the source. No stated cut-off is given here; in the data, active = GI50 up to about 1.1 µM and inactive = higher.
Labels: active, inactive

1. CCc1cccc(C(C)C)c1NC(=O)C(=O)C(C(=O)C(=O)OC)c1nc2ccccc2nc1O (centres undefined); inactive
2. O=C(CC1(O)C(=O)Nc2c(Cl)cc(Cl)cc21)c1ccc(Br)cc1 (centres undefined); inactive
3. CC(C)=CCOc1ccc(-c2coc3cc4c(c(O)c3c2=O)C=CC(C)(C)O4)cc1; active
4. CC1=C2[C@@H](c3ccccc3)C3C=CC2(c2ccccc23)N(C(=O)Nc2cccc3ccccc23)C1=O (some centres undefined); inactive
5. CCN(CC)CCNC(=O)c1nn(-c2ccc(Cl)cc2)c2c1CCc1cc(OC)ccc1-2; inactive
6. O=C1CSC(c2ccccc2[N+](=O)[O-])N1c1ccc(-c2ccc(-n3c(-c4ccccc4)nc4ccccc4c3=O)cc2)cc1 (centres undefined); inactive
7. COC(=O)/C=C(/C(=O)OC)c1c(C)c(C)c2c(C)cc(C)cc(C)c1-2; inactive
8. CC(=O)O/N=C1\C=Cc2c(no[n+]2[O-])C1=O; inactive
9. Cc1ccc2c(c1)CNc1ccc(C)cc1CN2; inactive

====

Test system: M14
Protocol Description: NCI tumour cell line growth inhibition, 48 h
Activity calls are given as the source filed them. No stated cut-off is given here; in the data, active = GI50 up to about 1.1 µM and inactive = higher.
Recorded Metric: GI50

1) CC1(C)OCC([C@H]2CC23SCCCS3)O1 (stereo partly specified); > 100 µM (inactive)
2) O=C(NC1C=Nc2ccc([N+](=O)[O-])cc2NC1=O)c1cc(Cl)cc([N+](=O)[O-])c1 (stereo unspecified); > 100 µM (inactive)
3) O=[N+]([O-])c1ccc2c(c1)Cc1cc(/N=C/c3ccc4c(c3)OCO4)ccc1-2; > 100 µM (inactive)
4) COc1ccc2cc3[n+](cc2c1OC)CCc1cc(O)c(O)cc1-3; > 100 µM (inactive)
5) Cc1nnc([C@@]2(C)CC[C@H]3[C@@H](CCC4=CC(=O)CC[C@@]43C)[C@@H]2CC#N)o1; > 100 µM (inactive)
6) COc1cccc(/C=N/n2c(C)n[nH]c2=O)c1; > 100 µM (inactive)
7) O=C(/C=C/c1ccco1)c1ccc(NCc2nc3ccccc3[nH]2)cc1; 16.9 µM (inactive)
8) CCCCCCCCCCCCCCCCCCN(C)C(COC)COP(=O)([O-])OCC[N+](C)(C)C (stereo unspecified); 3.46 µM (inactive)
9) CC(=O)/C=C1\CC(=O)Nc2ccccc2N1; > 100 µM (inactive)
10) CCOC(=O)C1=C(C)CC2C(=O)OC(=O)C2C1(C)C (stereo unspecified); > 100 µM (inactive)
11) CN1C(=O)[C@@H]2N(CSC2(C)C)C1=S; > 100 µM (inactive)
12) COc1ccc(CN2C(=O)[C@@H]3Cc4c(OC)c(C)c(OC)c(OC)c4[C@H](/C2=C\c2cc(OC)c(OC)c(C)c2OC)N3C(=O)OC(C)C)cc1; 28.4 µM (inactive)
13) CSc1n[nH]c2c1c(C)nn2-c1ccccc1; > 100 µM (inactive)
14) CCCCCCC(N)(CCCCCC)C(=O)Nn1c(C)ccc1C; > 100 µM (inactive)
15) C[n+]1c(-c2ccc(/C=N/NC(=O)C(=O)N/N=C/c3ccc(-c4cn5ccsc5[n+]4C)cc3)cc2)cn2ccsc21; > 100 µM (inactive)
16) C=C(C)C1CCC2(C)C1CCC1(C)C2CCC2C3(C)C4OC(OC4=O)C(C)(C)C3CCC21C (stereo unspecified); > 100 µM (inactive)
17) COc1cc(COC(=O)N(C)[C@@H](Cc2ccccc2)C(=O)O)c([N+](=O)[O-])cc1OC; > 100 µM (inactive)
18) O=CC12c3ccccc3C(c3ccccc31)C1C(=O)NC(=O)C12 (stereo unspecified); > 100 µM (inactive)
19) CCCCc1ccc(NC(=N)N)cc1; 24.2 µM (inactive)
20) Cc1c(C(=O)O)c2cc3ccccc3cc2c(=O)n1C; > 10 µM (inactive)
21) CCC(CCCN)Nc1cc(OC)cc2c(C)ccnc12 (stereo unspecified); 15.2 µM (inactive)
